Target: UniProtKB O14744
Sequence (O14744 whole entry): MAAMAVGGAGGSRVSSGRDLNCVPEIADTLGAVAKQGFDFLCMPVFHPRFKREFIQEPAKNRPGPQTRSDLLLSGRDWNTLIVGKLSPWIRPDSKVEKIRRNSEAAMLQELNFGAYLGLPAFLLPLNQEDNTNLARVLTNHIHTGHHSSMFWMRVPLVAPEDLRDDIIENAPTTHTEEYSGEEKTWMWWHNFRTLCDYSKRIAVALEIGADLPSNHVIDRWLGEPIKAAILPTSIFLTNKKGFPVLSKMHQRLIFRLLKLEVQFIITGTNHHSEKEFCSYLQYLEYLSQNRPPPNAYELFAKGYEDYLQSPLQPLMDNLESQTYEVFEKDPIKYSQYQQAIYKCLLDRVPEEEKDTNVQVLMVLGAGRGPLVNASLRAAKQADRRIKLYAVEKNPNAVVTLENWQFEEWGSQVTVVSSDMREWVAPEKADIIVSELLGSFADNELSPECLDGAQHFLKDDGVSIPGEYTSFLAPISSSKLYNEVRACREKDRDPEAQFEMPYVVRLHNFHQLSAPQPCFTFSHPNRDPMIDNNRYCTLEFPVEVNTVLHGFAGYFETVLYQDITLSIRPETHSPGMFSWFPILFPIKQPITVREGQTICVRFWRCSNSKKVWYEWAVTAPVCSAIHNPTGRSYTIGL
Sequence (Q9BQA1 whole entry partner): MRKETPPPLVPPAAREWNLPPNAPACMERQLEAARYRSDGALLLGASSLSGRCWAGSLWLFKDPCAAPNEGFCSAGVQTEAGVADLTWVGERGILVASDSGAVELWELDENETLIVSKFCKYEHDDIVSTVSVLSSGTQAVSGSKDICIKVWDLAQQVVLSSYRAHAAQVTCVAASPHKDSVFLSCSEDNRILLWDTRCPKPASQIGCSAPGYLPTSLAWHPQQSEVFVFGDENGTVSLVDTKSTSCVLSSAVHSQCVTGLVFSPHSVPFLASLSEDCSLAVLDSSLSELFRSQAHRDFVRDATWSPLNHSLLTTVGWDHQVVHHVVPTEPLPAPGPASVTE
Experiment: PRMT5 assay (3H-SAM flashplate)
Details: Table 4; PRMT5 biochemical assay
pIC50: −log10 of the molar value.
property_label: pIC50

> print(dat)
                     structure.smiles.string  property.label  recorded.measurement
 1  CNC(=O)Nc1cc(NC(=O)[C@H]2O[C@@H](n3cc(-c4ccn(C)n4)c4c(N)ncnc43)[C@H](O)[C@@H]2O)ccn1           pIC50          7.00 to 8.00
 2  Cn1ccc(-c2cn([C@@H]3O[C@H](C(=O)Nc4cccnc4)[C@@H](O)[C@H]3O)c3ncnc(N)c23)n1           pIC50          7.00 to 8.00
 3  Cn1ccc(-c2cn([C@@H]3O[C@H](C(=O)N[C@@H]4CCC(=O)NC4)[C@@H](O)[C@H]3O)c3ncnc(N)c23)n1           pIC50                ≤ 6.00
 4  Cn1ccc(-c2cn([C@@H]3O[C@H](C(=O)N4CCC[C@H](C(N)=O)C4)[C@@H](O)[C@H]3O)c3ncnc(N)c23)n1           pIC50                ≤ 6.00
 5  Cn1ccc(-c2cn([C@@H]3O[C@H](C(=O)Nc4cc(NCC5CC5)ccn4)[C@@H](O)[C@H]3O)c3ncnc(N)c23)n1           pIC50          7.00 to 8.00
 6  CN1CCC[C@H](NC(=O)[C@H]2O[C@@H](n3cc(-c4ccn(C)n4)c4c(N)ncnc43)[C@H](O)[C@@H]2O)C1           pIC50          7.00 to 8.00
 7  Cn1ccc(-c2cn([C@@H]3O[C@H](C(=O)NC4CCC4)[C@@H](O)[C@H]3O)c3ncnc(N)c23)n1           pIC50                ≤ 6.00
 8  Cn1ccc(-c2cn([C@@H]3O[C@H](C(=O)NCCCN4CCCC4)[C@@H](O)[C@H]3O)c3ncnc(N)c23)n1           pIC50          7.00 to 8.00
 9  CN1CCC(N(CCOCCO)C(=O)[C@H]2O[C@@H](n3cc(-c4ccn(C)n4)c4c(N)ncnc43)[C@H](O)[C@@H]2O)CC1           pIC50          7.00 to 8.00
10  Cc1ccnc(NC(=O)[C@H]2O[C@@H](n3cc(-c4ccn(C)n4)c4c(N)ncnc43)[C@H](O)[C@@H]2O)c1           pIC50                ≤ 6.00
11  Cn1ccc(-c2cn([C@@H]3O[C@H](C(=O)NC[C@H]4CC[C@@H](O)CC4)[C@@H](O)[C@H]3O)c3ncnc(N)c23)n1           pIC50                ≤ 6.00
12  CN1CC(NC(=O)[C@H]2O[C@@H](n3cc(-c4ccn(C)n4)c4c(N)ncnc43)[C@H](O)[C@@H]2O)C1           pIC50          7.00 to 8.00
13  CCNc1cc(CNC(=O)[C@H]2O[C@@H](n3cc(-c4ccn(C)n4)c4c(N)ncnc43)[C@H](O)[C@@H]2O)ccn1           pIC50          6.00 to 7.00
